Read-out: CD38, CD38 (gene 952)
Assay: BSK_SAg_CD38: BioMAP Diversity Plus: SAg Assay for CD38 Biomarker Activity (AID 2283087)
Conditions: primary human HUVEC with PBMC; actives raise or lower the signal
Experimental: BSK_SAg is a cell-based, multiplexed-readout assay that uses umbilical vein endothelium and peripheral blood mononuclear cells, a human vascular primary cell co-culture, with measurements taken at 24 hours after chemical dosing in a 96-well plate.BSK_SAg_CD38 is one of 10 assay component(s) measured or calculated from the BSK_SAg assay. […] This assay endpoint, BSK_SAg_CD38, was analyzed with bidirectional fitting relative to DMSO as the negative control and baseline of activity. […]
The source made the active and inactive calls. The calls were made as follows: active = hit-call score of the fitted dose curve at least 0.9, where 1 is the maximum; inactive = score below 0.9.
reportedProperty: AC50

CC[C@H]1OC(=O)[C@H](C)[C@@H](O[C@H]2C[C@@](C)(OC)[C@@H](O)[C@H](C)O2)[C@H](C)[C@@H](O[C@@H]2O[C@H](C)C[C@H](N(C)C)[C@H]2O)[C@](C)(O)C[C@@H](C)C(=O)[C@H](C)[C@@H](O)[C@]1(C)O
inactive
Cc1c(-c2cccnc2)c2ccccc2n1CCCCC(=O)O
inactive
CCc1cc(SCc2sc(-c3ccc(C(F)(F)F)cc3)nc2CN2CCN(c3ccc(OC)cc3)CC2)ccc1OCC(=O)O
10.3 µM (active)
C=CC(=C)CCC=C(C)C
inactive

###

read-out: Vascular endothelial growth factor receptor 2 (Homo sapiens); experiment: BSK_4H_VEGFRII: BioMAP Diversity Plus: 4H Assay for Vascular endothelial growth factor receptor 2 (VEGFR2) Biomarker Activity (AID 2283031); conditions: primary human endothelial cells (HUVEC); actives raise or lower the signal
Active and inactive are the calls of the source. Rule for the calls: active = hit-call score of the fitted dose curve at least 0.9, where 1 is the maximum; inactive = score below 0.9.
Valid outcomes are listed here; reply with one: t = active, f = inactive

Assay outcome for `CN(C)c1ccc(N=NS(=O)(=O)O)cc1` : what was it?
f

Short answer needed: outcome of this test for `Cc1ccc(S(=O)(=O)O)cc1C` ?
f

What outcome does the record of this test show for `Cc1ccc(O)cc1` ?
f

Which outcome was assigned to O=c1n(CC2CO2)c(=O)n(CC2CO2)c(=O)n1CC1CO1 (configuration not stated) in this test?
f

Could you please tell me the result logged for `O=C(O)c1cccc(N(Cc2cccnc2)c2ccc(OC(F)F)c(OC(F)F)c2)c1` in this assay?
f

Answer briefly: the call reported for `CCc1cc(SCc2sc(-c3ccc(C(F)(F)F)cc3)nc2CN2CCN(c3ccc(OC)cc3)CC2)ccc1OCC(=O)O` in this assay.
t

How was `Cn1c(=O)cc(Oc2ccc(F)cc2F)c2cnc(NCC(C)(C)O)nc21` classified in this test?
f

Could you please tell me the result logged for CC(O)CN(CCN(CC(C)O)CC(C)O)CC(C)O (configuration not stated) in this assay?
f

Could you please tell me the result logged for `CC1(C)C(=O)N(Br)C(=O)N1Br` in this assay?
f

Hello, I am checking results. What call was entered for `CC(C)=CCC/C(C)=C\CO` ?
f

Returns: the outcome recorded for `CC(C)CCCCCCCOC(=O)CCCCC(=O)OCCCCCCCC(C)C` in this assay.
f

Hello, I am checking results. What call was entered for `CCCCCCCCCCCCc1ccccc1` ?
f

Hi, sorry to bother you, what did the test record for `CCNc1ccccc1` ?
f

Please share the test call associated with `COc1cccc(-c2ccc(/C=C\CN3CCCCCC3)cc2Cl)c1` .
t

// outcome(item) with item = `CN(C)c1ccc(Cc2ccc(N(C)C)cc2)cc1`
f

What did the test return for CCCCC(CC)COC(=O)CCCCCCCCC(=O)OCC(CC)CCCC (configuration not stated) ?
f

Hi, sorry to bother you, what did the test record for `CCOC(=O)CC(CC(=O)OCC)(OC(C)=O)C(=O)OCC` ?
f

I'd appreciate the recorded outcome for `O=C(NS(=O)(=O)/C=C/c1ccccc1)c1ccc(F)cc1Cl` from this test.
f

Fill in: this test's call for `CCCN(C1CCN(C(=O)C2CCNCC2)CC1)[C@@H]1CCc2ccc(OC)cc2C1` is ___
f

For this compound, state the assay outcome: `O=C(O)c1cccc(Oc2ccccc2)c1`
f

Please state the recorded outcome for this compound: `O=C(O)c1cc(N=Nc2ccc(S(=O)(=O)Nc3ccccn3)cc2)ccc1O`
f

# fetch the recorded call for `COCCOCCOCCOC` here
f

###

test: ATG_SREBP_CIS: Attagene CIS-FACTORIAL HepG2 Assay for human Sterol Regulatory Element Binding (SREBP) (AID 2282962); conditions: HepG2 Attagene cis-factorial SREBP reporter, mRNA; actives raise or lower the signal
Activity calls are given as the source filed them. How the source made its calls: active means hit-call score of the fitted dose curve at least 0.9, where 1 is the maximum; inactive means score below 0.9.
reportedProperty: AC50

# count of solved cases: 5
CN(C)c1ccc(N=NS(=O)(=O)O)cc1
inactive
NC(=O)NO
inactive
Fc1ccccc1[C@@H](F)COC1CCC(Nc2ncnc3[nH]ncc23)CC1 (stereo partly specified)
4.65 µM (active)
COCCOc1cc2cc(C(=O)NC3CCN(C(C)C)CC3)n(CC(=O)Nc3ccc(Cl)cn3)c2cn1
26.5 µM (active)
O=C1CCCCCN1
inactive

State its AC50 for this molecule: `COCCOCCOCCOC`
inactive

Please look at this molecule and report its AC50: `CCCN(C1CCN(C(=O)C2CCNCC2)CC1)[C@@H]1CCc2ccc(OC)cc2C1`
inactive

Please give measured AC50 of the following entry: `C1N2CN3CN1CN(C2)C3`
inactive

Report AC50 for `CC(C)(O)c1coc(S(=O)(=O)NC(=O)Nc2c3c(cc4c2CCC4)CCC3)c1`
inactive

Output AC50 of CCCCC(CC)COC(=O)CCCCCCCCC(=O)OCC(CC)CCCC (stereo unspecified)
inactive

Determine its reported AC50: `CC[C@H]1CC[C@H](NCc2cc3c(cc2OC)[C@H]2C[C@H]2C(=O)N3C)[C@H](c2ccccc2)N1`
36.6 µM (active)

Indicate the recorded AC50 value for this molecule: `Nc1ccc(Nc2ccccc2)cc1`
inactive

###

target: Nuclear receptor subfamily 1 group I member 2 (Homo sapiens) (UniProt O75469); test: ATG_PXR_TRANS: Attagene TRANS-FACTORIAL HepG2 Assay for human Pregnane X Receptor (PXR) (AID 2283008)
Sequence (O75469 whole entry, looked up): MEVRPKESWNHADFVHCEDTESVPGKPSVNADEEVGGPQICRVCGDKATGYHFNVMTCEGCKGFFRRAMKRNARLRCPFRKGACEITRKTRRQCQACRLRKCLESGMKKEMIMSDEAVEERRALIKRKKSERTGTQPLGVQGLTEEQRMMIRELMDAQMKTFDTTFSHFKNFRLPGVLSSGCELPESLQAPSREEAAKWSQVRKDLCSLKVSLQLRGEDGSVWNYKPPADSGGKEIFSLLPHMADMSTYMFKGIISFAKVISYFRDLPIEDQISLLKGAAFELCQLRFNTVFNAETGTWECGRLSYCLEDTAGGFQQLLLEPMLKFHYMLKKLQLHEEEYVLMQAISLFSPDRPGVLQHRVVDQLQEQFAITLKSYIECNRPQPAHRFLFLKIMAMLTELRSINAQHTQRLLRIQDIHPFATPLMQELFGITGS
Records with an inconclusive call do not appear. The source made the active and inactive calls. How the source made its calls: active means hit-call score of the fitted dose curve at least 0.9, where 1 is the maximum; inconclusive means response in the unintended direction; inactive means score below 0.9.
Result category, one only: active, inactive

State the result this test recorded for `CC[C@H](C)C(=O)O[C@H]1C[C@@H](C)C=C2C=C[C@H](C)[C@H](CC[C@@H]3C[C@@H](O)CC(=O)O3)[C@H]21` .
active

Answer briefly: the call reported for `CC(C)=CCC/C(C)=C\CO` in this assay.
active

For `CCOC(=O)CC(CC(=O)OCC)(OC(C)=O)C(=O)OCC` , which call appears in the assay record?
inactive

Query: recorded result category for O=C(O)CC(O)C(=O)O (configuration not stated) in this test
inactive

Answer briefly: the call reported for `Cn1c(=O)c2c(ncn2C)n(C)c1=O` in this assay.
inactive

Write down the call the test reported for this molecule. Item: `COCCOCCOCCOC`
inactive

Would you mind telling me which call this test gave `CN(C)c1ccc(N=NS(=O)(=O)O)cc1` ?
inactive

###

read-out: Pro-epidermal growth factor (Homo sapiens) (UniProt P01133); experiment: LTEA_HepaRG_EGF: Life Technologies and Expression Analysis (LTEA) Assay for Epidermal growth factor (EGF) using HepaRG (AID 2283489); details: mRNA level, 48 h; actives raise or lower the signal
The source made the active and inactive calls. The calls were made as follows: active = hit-call score of the fitted dose curve at least 0.9, where 1 is the maximum; inactive = score below 0.9.
reportedProperty: AC50

Examples with their reported AC50 follow.
COC(=O)c1c(Cl)c(Cl)c(C(=O)OC)c(Cl)c1Cl
inactive
CCCC(=O)OCC
inactive
CCCCC(CC)COC(=O)c1ccc(C(=O)OCC(CC)CCCC)cc1 (stereo unspecified)
inactive
C=CCCCCCCCCC(=O)O
inactive
CCc1cc(SCc2sc(-c3ccc(C(F)(F)F)cc3)nc2CN2CCN(c3ccc(OC)cc3)CC2)ccc1OCC(=O)O
inactive

Kindly review the next molecule as well.
Please give the documented AC50 of `COc1ccc2sc(C(=O)Nc3nnn[nH]3)c(OC(C)C)c2c1`
22 µM (active)

###

assay: ATG_EGR_CIS: Attagene CIS-FACTORIAL HepG2 Assay for human Early Growth Response 1 (EGR1) (AID 2282938); details: HepG2 Attagene CIS-FACTORIAL EGR reporter mRNA; actives raise or lower the signal
Active and inactive are the calls of the source. The calls were made as follows: active = hit-call score of the fitted dose curve at least 0.9, where 1 is the maximum; inactive = score below 0.9.
Output constraint: value belongs to YES (active), NO (inactive)

Hi, sorry to bother you, what did the test record for `CC1(C)C(=O)N(Br)C(=O)N1Br` ?
NO

Give the logged outcome of this assay for the following compound: `COC(=O)c1ccccc1O`
NO

Hello, I am checking results. What call was entered for `CCC(C)(C)C(=O)O[C@H]1C[C@@H](C)C=C2C=C[C@H](C)[C@H](CC[C@@H]3C[C@@H](O)CC(=O)O3)[C@H]21` ?
NO

Given `C=CCCCCCCCCC(=O)O` , state the outcome it received in this test.
NO

Hi, do you know how `Cn1c(=O)cc(Oc2ccc(F)cc2F)c2cnc(NCC(C)(C)O)nc21` came out in this test?
NO

Short answer needed: outcome of this test for O=C1CCC(N2C(=O)c3ccccc3C2=O)C(=O)N1 (centres undefined) ?
NO

Assay result, entry `CC(C)c1cccc(C(C)C)c1N1C(=O)c2ccc(O)cc2C1=O` — outcome?
YES

Any idea what this test logged for `O=C1CCCCCN1` ?
NO

Dear colleague, could you share the recorded outcome for `O=C(O)c1cccc(N(Cc2cccnc2)c2ccc(OC(F)F)c(OC(F)F)c2)c1` when you have a moment?
NO
